Source: patent US20150087605A1

target: LF protease activity (Bacillus anthracis); experiment: biochemical; conditions: read-out: IC50 Protease Activity
Sequence (P15917 34-809 limits assumed): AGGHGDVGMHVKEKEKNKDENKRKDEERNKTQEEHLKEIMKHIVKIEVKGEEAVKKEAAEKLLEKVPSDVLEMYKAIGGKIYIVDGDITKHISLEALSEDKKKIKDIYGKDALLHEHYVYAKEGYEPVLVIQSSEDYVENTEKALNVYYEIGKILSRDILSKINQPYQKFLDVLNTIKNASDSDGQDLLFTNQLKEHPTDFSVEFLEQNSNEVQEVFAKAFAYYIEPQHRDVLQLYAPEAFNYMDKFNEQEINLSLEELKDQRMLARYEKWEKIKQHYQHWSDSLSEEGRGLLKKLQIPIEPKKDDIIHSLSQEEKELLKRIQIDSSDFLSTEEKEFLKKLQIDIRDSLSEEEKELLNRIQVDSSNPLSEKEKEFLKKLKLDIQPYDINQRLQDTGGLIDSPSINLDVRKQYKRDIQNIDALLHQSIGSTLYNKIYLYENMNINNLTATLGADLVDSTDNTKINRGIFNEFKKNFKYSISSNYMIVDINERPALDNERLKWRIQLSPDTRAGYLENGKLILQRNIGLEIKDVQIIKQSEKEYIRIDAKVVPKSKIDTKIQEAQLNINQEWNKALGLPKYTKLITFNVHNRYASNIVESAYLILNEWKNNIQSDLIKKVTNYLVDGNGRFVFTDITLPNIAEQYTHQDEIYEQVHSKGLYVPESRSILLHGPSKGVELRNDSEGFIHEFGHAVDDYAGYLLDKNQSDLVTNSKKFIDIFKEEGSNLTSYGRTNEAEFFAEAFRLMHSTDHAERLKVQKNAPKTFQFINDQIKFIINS

cpdSmiles | measuredOn | readoutUnits | IC50
CC1=C(CC(=O)O)c2cc(F)ccc2/C1=C\c1ccc(S(C)(=O)=O)cc1 | LF protease activity (Bacillus anthracis) | µM | 185

* * *

Listed here: compounds with reported Kd for Anthrax Lethal Factor (LF) (Bacillus anthracis).

compound | Kd, µM
CCCCc1ccc(C(=O)O)nc1 | 4.5
CC1=C(CC(=O)O)c2cc(F)ccc2/C1=C\c1ccc([S+](C)[O-])cc1 (centres unmarked) | 2.8

* * *

biological target: LF protease activity (Bacillus anthracis); assay: biochemical; settings: IC50 (fluorogenic substrate assay)

molecule | IC50, µM
CCCCc1ccc(C(=O)NCCCN=[N+]=[N-])nc1 [fusaric acid-N3] | 1100
